- measurement target: human OX2R (Homo sapiens, UniProt O43614)
- Sequence (O43614 whole entry): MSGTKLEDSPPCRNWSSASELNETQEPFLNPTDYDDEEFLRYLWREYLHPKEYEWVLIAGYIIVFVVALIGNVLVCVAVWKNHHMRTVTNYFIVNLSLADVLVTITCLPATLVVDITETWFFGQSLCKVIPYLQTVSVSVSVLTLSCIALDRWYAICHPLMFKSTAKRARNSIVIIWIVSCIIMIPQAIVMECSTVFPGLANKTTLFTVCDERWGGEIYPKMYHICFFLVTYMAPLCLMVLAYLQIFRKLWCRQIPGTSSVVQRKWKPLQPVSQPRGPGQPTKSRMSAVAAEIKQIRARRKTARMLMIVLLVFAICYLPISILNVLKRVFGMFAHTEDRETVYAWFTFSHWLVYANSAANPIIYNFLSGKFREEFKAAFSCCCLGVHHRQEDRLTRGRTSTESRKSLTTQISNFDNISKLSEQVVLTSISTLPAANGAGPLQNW
- test method notes: Evaluation of OX2R agonist activity (intracellular calcium, CHO-K1 cells with forced expression of human OX2R)
- particulars: CHO-K1 cells expressing human OX2R; 100% = 5 µM of the reference compound; read-out: hOX2R EC50
Catalogue of molecules with associated EC50
endpoint: EC50 (nM)

molecule="CC(C)(O)C(=O)N1C2CC(C2)C(NS(C)(=O)=O)C1Cc1cc(F)cc(-c2ccccc2)c1F (single isomer, unassigned) [Example 59]" result_number=88
molecule="[2H][C@](C)(O)C(=O)N1C2CC(F)(C2)[C@H](NS(C)(=O)=O)[C@@H]1Cc1cc(F)cc(-c2ccccc2)c1F [Example 100]" result_number=43
molecule="CS(=O)(=O)N[C@@H]1[C@H](Cc2cccc(-c3ccccc3)c2F)N(C(=O)c2ccon2)C2CC1(F)C2 (single isomer, unassigned) [Example 84]" result_number=231
molecule="CC(C)(O)C(=O)N1C2CC(C2)[C@H](NS(C)(=O)=O)[C@@H]1Cc1cccc(-c2cccc(C(F)(F)F)c2)c1F [Example 18]" result_number=784
molecule="CC(=O)N1C2CC(F)(C2)[C@H](NS(C)(=O)=O)[C@@H]1Cc1cccc(-c2cccc(Cl)c2)c1F [Example 46]" result_number=106
molecule="CCOC(=O)N1C2CC(C2)[C@H](NS(C)(=O)=O)[C@@H]1Cc1cccc(-c2ccccc2)c1F [Example 65]" result_number=393

Numbers sourced from patent EP4635944A1.
